# System: Mycobacterium tuberculosis
# ASSAY_OVERVIEW: Antimycobacterial activity against Mycobacterium tuberculosis H37Rv assessed as growth inhibition by Alamar Blue staining-based broth microdilution assay
# Format: functional, organism-based
For each of the compounds below, state its MIC90.
Give bare numbers, in µM.

COMPOUND	TEST_TARGET	OUTPUT_UNIT	NUMERIC_VALUE
COc1cc(/C=C2\SC(=O)N(C(C(=O)C3CC3)c3ccccc3F)C2=O)cc(OC)c1OC (stereo not given)	Mycobacterium tuberculosis	µM	50

List reported MIC90 for each of these compounds:
1. N[C@@H]1CONC1=O [CYCLOSERINE]
2. COc1cc(Br)c(/C=C2\SC(=O)N(C(C(=O)C3CC3)c3ccccc3F)C2=O)cc1O (stereo not given)

25
50

List reported MIC90 for each of these compounds:
1. NNC(=O)c1ccncc1 [ISONIAZID]
2. CSc1ccc(/C=C2\SC(=O)N(C(C(=O)C3CC3)c3ccccc3F)C2=O)cc1 (stereo not given)
3. O=C(C1CC1)C(c1ccccc1F)N1C(=O)S/C(=C\c2ccc(O)cc2)C1=O (stereo not given)

1: 0.31; 2: 25; 3: 25

* * *

For each of the molecules below, state its MIC90.
# Tested on: Mycobacterium tuberculosis
# ASSAY_OVERVIEW: Antimycobacterial activity against Mycobacterium tuberculosis H37Rv assessed as growth inhibition by Alamar Blue staining-based broth microdilution assay
# Type: functional, organism-based
One number for each entry, in µM.

MOLECULE	NUMERIC_VALUE
CC[C@@H](CO)NCCN[C@@H](CC)CO [ETHAMBUTOL]	12.5

List reported MIC90 for each of these molecules:
1. O=C(C1CC1)C(c1ccccc1F)N1C(=O)S/C(=C\c2ccc(F)cc2)C1=O (stereo not given)
2. O=C(C1CC1)C(c1ccccc1F)N1C(=O)S/C(=C\c2ccc(Cl)cc2)C1=O (stereo not given)
3. COc1cc(OC)c(/C=C2\SC(=O)N(C(C(=O)C3CC3)c3ccccc3F)C2=O)c(OC)c1 (stereo not given)
4. O=C(C1CC1)C(c1ccccc1F)N1C(=O)S/C(=C\c2ccc3ccccc3n2)C1=O (stereo not given)

1. 25
2. 50
3. 50
4. 25

* * *

# Test system: Mycobacterium tuberculosis
# ASSAY_OVERVIEW: Antimycobacterial activity against Mycobacterium tuberculosis H37Rv assessed as growth inhibition by Alamar Blue staining-based broth microdilution assay
# Type: functional, organism-based
For each of the compounds below, state its MIC90.
Give bare numbers, in µM.

COMPOUND	TEST_TARGET	OUTPUT_UNIT	NUMERIC_VALUE
COc1ccc(/C=C2\SC(=O)N(C(C(=O)C3CC3)c3ccccc3F)C2=O)cc1 (stereo not drawn)	Mycobacterium tuberculosis	µM	25
COc1ccc(/C=C2\SC(=O)N(C(C(=O)C3CC3)c3ccccc3F)C2=O)cc1OC (stereo not drawn)	Mycobacterium tuberculosis	µM	25
O=C(C1CC1)C(c1ccccc1F)N1C(=O)S/C(=C\c2ccc(N3CCCCC3)cc2)C1=O (stereo not drawn)	Mycobacterium tuberculosis	µM	25
O=C(C1CC1)C(c1ccccc1F)N1C(=O)S/C(=C\c2cc(Br)cs2)C1=O (stereo not drawn)	Mycobacterium tuberculosis	µM	50
CCc1nc(N)nc(N)c1-c1ccc(Cl)cc1	Mycobacterium tuberculosis	µM	100

List reported MIC90 for each of these compounds:
1. O=C(C1CC1)C(c1ccccc1F)N1C(=O)S/C(=C\c2ccc3c(c2)OCO3)C1=O (stereo not drawn)
2. NCC[C@H](O)C(=O)N[C@@H]1C[C@H](N)[C@@H](O[C@H]2O[C@H](CN)[C@@H](O)[C@H](O)[C@H]2O)[C@H](O)[C@H]1O[C@H]1O[C@H](CO)[C@@H](O)[C@H](N)[C@H]1O
3. O=C(C1CC1)C(c1ccccc1F)N1C(=O)CSC1=O (stereo not drawn)

1. 25
2. 0.16
3. 25
